- MEASURED TARGET: Short transient receptor potential channel 4 (Mus musculus) (UniProt Q9QUQ5)
- ASSAY OVERVIEW: calcium flux activators in TRPC4/5HT1a cells, counter-screen for TRPC4 activator project, cell-based, second counter screen, HEK293 TRPC4/5HT1a, Fluo-4 (AID 434977)
- MEASUREMENT CONTEXT: Fluo-4 calcium flux, at 10 µM
The source made the active and inactive calls.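 Rule for the calls: active = calcium signal rise above buffer-control mean plus 5 SD in both duplicates, and also a hit in the primary screen; inactive = the rest.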
Hi! Could you answer with just one of these? active, inactive

INSERT INTO results (compound, assigned_category) VALUES
  ('CC(CN1CCCC(C(N)=O)C1)c1ccccc1 (stereo not given)', 'active');

Which outcome did this test record for the compound Cc1cc(-c2ccc(C)c(S(=O)(=O)N3CCN(c4ccccn4)CC3)c2)on1 ? inactive

Which outcome did this test record for the compound O=C(/C=C/c1ccc(Cl)cc1)N(Cc1ccccc1)C1CCS(=O)(=O)C1 (stereo not given) ? inactive

Which outcome did this test record for the compound CCOC(=O)CC(NS(=O)(=O)c1ccc(OC)c(C)c1)c1cccc([N+](=O)[O-])c1 (stereo not given) ? inactive

Which outcome did this test record for the compound Cn1c(-c2ccc(F)cc2)cnc1NCc1ccc(F)cc1 ? inactive
